target.or.test.system: purified human Hsp90
Construct: purified human Hsp90 (Stressgen, SPP-770)
protocol.summary: Hsp90 binding assay: displacement of BODIPY-labeled geldanamycin measured by fluorescence polarization
run.conditions: BODIPY-GM 10 nM, Hsp90 30 nM, overnight at room temperature; read-out: GM displacement from purified Hsp90 measured by FP IC 50
observed.property: IC50

Query :: Provide value of IC50 for this record tested with purified human Hsp90: C[C@H](O)C(=O)N[C@@H](C)C(=O)N1CCC(Cn2c(Sc3cc4c(cc3Br)OCCO4)nc3c(N)ncnc32)CC1 [compound 130]
Result :: 1.1 µM

Query :: Provide value of IC50 for this record tested with purified human Hsp90: C[C@H](NC(=O)CO)C(=O)N1CCC(Cn2c(Sc3cc4c(cc3Br)OCCO4)nc3c(N)ncnc32)CC1 [compound 131]
Result :: 1.9 µM

Query :: Provide value of IC50 for this record tested with purified human Hsp90: C[C@H](O)C(=O)N1CCC(CCn2c(Sc3cc4occc4cc3Br)nc3c(N)ncnc32)CC1 [Example Compound 199]
Result :: 0.19 µM

Query :: Provide value of IC50 for this record tested with purified human Hsp90: COCCC(=O)N1CCC(CCn2c(Sc3cc4c(cc3Br)OCCO4)nc3c(N)ncnc32)CC1 [compound 5]
Result :: 0.063 µM

* * *

target.or.test.system: purified human Hsp90
Construct: purified human Hsp90 (Stressgen, SPP-770)
protocol.summary: Hsp90 binding assay: displacement of BODIPY-labeled geldanamycin measured by fluorescence polarization
run.conditions: BODIPY-GM 10 nM, Hsp90 30 nM, overnight at room temperature; read-out: GM displacement from purified Hsp90 measured by FP IC 50
observed.property: pIC50
Keep in mind that pIC50 stands for -log10 of concentration in molar terms.

Query :: Item N#Cc1cc2c(cc1Sc1nc3c(N)ncnc3n1CCC1CCN(C(=O)[C@@H]3CC(F)(F)CN3)CC1)OCO2 [compound 135] has what recorded pIC50?
Result :: 6.05

Query :: Item CC(=O)N1CCC(CCn2c(Sc3cc4c(cc3C#N)OCCO4)nc3c(N)ncnc32)CC1 [compound 60] has what recorded pIC50?
Result :: 7.22

Query :: Item CC(=O)NCC(=O)N1CCC(CCn2c(Sc3cc4c(cc3Br)OCCO4)nc3c(N)ncnc32)CC1 [Example Compound 159] has what recorded pIC50?
Result :: 6.82

* * *

target.or.test.system: purified human Hsp90
Construct: purified human Hsp90 (Stressgen, SPP-770)
protocol.summary: Hsp90 binding assay: displacement of BODIPY-labeled geldanamycin measured by fluorescence polarization
run.conditions: BODIPY-GM 10 nM, Hsp90 30 nM, overnight at room temperature; read-out: GM displacement from purified Hsp90 measured by FP IC 50
observed.property: IC50 (nM)
Give the value, in units of nM, as a plain number.

Query :: Item C[C@H](O)C(=O)N1CCC(CCn2c(Sc3cc4c(cc3Br)OCCO4)nc3c(N)ncnc32)CC1 [compound 88] has what recorded IC50?
Result :: 80

Query :: Item CC(=O)N[C@H](C)C(=O)N1CCC(CCn2c(Sc3cc4c(cc3Br)OCCO4)nc3c(N)ncnc32)CC1 [Example Compound 161] has what recorded IC50?
Result :: 140

Query :: Item COCCOCC(=O)N1CCC(CCn2c(Sc3cc4c(cc3Br)OCCO4)nc3c(N)ncnc32)CC1 [compound 3] has what recorded IC50?
Result :: 80

Query :: Item COCCOCC(=O)N1CCC(CCn2c(Sc3cc4c(cc3C#N)OCO4)nc3c(N)ncnc32)CC1 [compound 42] has what recorded IC50?
Result :: 500

Query :: Item Nc1ncnc2c1nc(Sc1cc(Br)c3c(c1)CCO3)n2CCC1CCN(C=O)CC1 [Example Compound 179] has what recorded IC50?
Result :: 4000

Query :: Item C[C@@H](N)C(=O)N1CCC(Cn2c(Sc3cc4c(cc3Br)OCCO4)nc3c(N)ncnc32)CC1 [compound 124] has what recorded IC50?
Result :: 295

Query :: Item CO[C@H](C)C(=O)N1CCC(CCn2c(Sc3cc4c(cc3C#N)OCCO4)nc3c(N)ncnc32)CC1 [compound 44] has what recorded IC50?
Result :: 300

Query :: Item Nc1ncnc2c1nc(Sc1cc3ccoc3cc1Br)n2CCC1CCN(C=O)CC1 [Example Compound 176] has what recorded IC50?
Result :: 900

Query :: Item Nc1ncnc2c1nc(Sc1cc3c(cc1[N+](=O)[O-])OCCO3)n2CCC1CCN(C=O)CC1 [compound 66] has what recorded IC50?
Result :: 73
